Test system: PPARg:RXRa 90nM:30nM, anti-RXR (NR concentration 90 nM, RXRa partner concentration 30 nM)
Assay: PBM binding z-score (relative to random genomic background probes); higher = stronger binding; sequences stand for … in GC…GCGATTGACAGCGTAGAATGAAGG
Ranges used to classify PBM binding z-score: lower segment = under 1, middle segment = from 1 up to 5, upper segment = 5 and over

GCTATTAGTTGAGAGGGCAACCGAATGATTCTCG    middle segment
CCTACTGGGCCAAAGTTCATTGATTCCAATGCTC    upper segment

Note: place this sequence into its band. Item: "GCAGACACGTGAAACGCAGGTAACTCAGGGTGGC"
lower segment

Likewise for "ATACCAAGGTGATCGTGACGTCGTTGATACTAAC" ?
lower segment
